For each of the molecules below, state its pIC50.
Biological target: various mutants of kinase EGFR (BaF3 cell lines stably transfected with kinase) (Homo sapiens, UniProt P00533, L858R/T790M)
Construct: expressed in transfected cells; host or cells: BaF3
Sequence (P00533 25-1210 T790M/L858R): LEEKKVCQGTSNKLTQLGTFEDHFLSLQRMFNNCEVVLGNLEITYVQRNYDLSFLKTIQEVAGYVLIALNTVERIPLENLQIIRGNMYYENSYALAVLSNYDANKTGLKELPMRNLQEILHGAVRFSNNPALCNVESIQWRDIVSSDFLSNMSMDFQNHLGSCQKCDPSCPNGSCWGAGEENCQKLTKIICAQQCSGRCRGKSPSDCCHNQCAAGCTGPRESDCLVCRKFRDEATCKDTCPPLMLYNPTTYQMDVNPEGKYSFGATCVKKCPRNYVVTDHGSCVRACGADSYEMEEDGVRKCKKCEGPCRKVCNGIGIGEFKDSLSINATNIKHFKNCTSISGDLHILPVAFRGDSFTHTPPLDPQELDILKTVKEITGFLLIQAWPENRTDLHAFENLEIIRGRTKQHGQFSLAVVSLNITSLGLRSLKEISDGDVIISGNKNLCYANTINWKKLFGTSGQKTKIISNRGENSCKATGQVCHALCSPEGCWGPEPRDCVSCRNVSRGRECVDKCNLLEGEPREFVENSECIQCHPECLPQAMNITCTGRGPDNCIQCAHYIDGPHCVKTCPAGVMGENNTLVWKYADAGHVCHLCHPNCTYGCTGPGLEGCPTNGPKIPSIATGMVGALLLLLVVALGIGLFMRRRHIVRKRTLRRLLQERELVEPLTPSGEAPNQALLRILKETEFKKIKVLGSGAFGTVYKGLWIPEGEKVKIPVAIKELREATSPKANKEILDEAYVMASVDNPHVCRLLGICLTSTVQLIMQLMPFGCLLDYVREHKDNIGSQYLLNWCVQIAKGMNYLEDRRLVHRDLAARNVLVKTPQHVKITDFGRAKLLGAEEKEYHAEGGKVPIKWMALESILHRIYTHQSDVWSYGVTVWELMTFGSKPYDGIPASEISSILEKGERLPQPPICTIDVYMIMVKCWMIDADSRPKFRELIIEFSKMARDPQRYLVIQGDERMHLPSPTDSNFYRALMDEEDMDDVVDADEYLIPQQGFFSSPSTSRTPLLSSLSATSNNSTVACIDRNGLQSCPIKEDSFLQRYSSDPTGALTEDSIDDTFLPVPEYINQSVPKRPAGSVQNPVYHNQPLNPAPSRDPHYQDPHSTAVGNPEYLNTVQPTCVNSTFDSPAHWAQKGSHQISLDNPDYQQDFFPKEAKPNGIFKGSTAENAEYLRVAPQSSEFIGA
Assay: Growth inhibitory activity of compounds on BaF3 cell lines stably transfected with kinase (MTS, 48 h)
Assay type: cell-based
Conditions: BaF3 cells stably transfected with EGFR L858R/T790M, read-out: IC50, growth inhibition, L858R/T790M
Protocol: The activity of compounds against various mutants of kinase EGFR was evaluated by their effect of inhibiting growth of BaF3 cell lines stably transfected with kinase. The specific test method was given as follows: […] 3) Compound test: cells were incubated into a 96-well culture plate, the volume of cytosol was 90 µL, and then 10 µL of the compound at each gradient concentration was added. […] OD values at 490 nm were measured by a microplate reader (VARIOSKAN FLASH, Thermo). […]
pIC50: −log10 of the molar value.

input: Tell me pIC50 reported for CCc1cc(Nc2ncc(Cl)c(Nc3ccc4nccnc4c3N(C)S(C)(=O)=O)n2)c(OC)cc1N1CCN(C)CC1
output: ≥ 7.30

input: Tell me pIC50 reported for COc1cc(N2CCC(N3CCN(C)CC3)CC2)c(C)cc1Nc1ncc(Br)c(Nc2ccc3nccnc3c2N(C2CC2)S(C)(=O)=O)n1
output: ≥ 7.30

input: Tell me pIC50 reported for CC1CN(C)CCc2ccc(Nc3ncc(Br)c(Nc4ccc5nccnc5c4N(C)S(C)(=O)=O)n3)cc21 (stereo not drawn)
output: ≥ 7.30

input: Tell me pIC50 reported for CCN(c1c(Nc2nc(Nc3cc(C)c(N4CCC(N(C)C)C4)cc3OC)ncc2Cl)ccc2nccnc12)S(C)(=O)=O (stereo not drawn)
output: ≥ 7.30

input: Tell me pIC50 reported for COc1nc(N2CCC(N3CCN(C)CC3)CC2)ccc1Nc1ncc(Br)c(Nc2ccc3nccnc3c2N(C)S(=O)(=O)C2CC2)n1
output: 5.60 to 6.30

input: Tell me pIC50 reported for CCS(=O)(=O)N(C)c1c(Nc2nc(Nc3cc(C)c(N4CCC(N5CCN(C)CC5)CC4)cc3OC)ncc2Cl)ccc2nccnc12
output: ≥ 7.30
